Let's go through some pIC50 measurements on Acetylcholinesterase (Electrophorus electricus, UniProt O42275) together.
Sequence (O42275 whole entry): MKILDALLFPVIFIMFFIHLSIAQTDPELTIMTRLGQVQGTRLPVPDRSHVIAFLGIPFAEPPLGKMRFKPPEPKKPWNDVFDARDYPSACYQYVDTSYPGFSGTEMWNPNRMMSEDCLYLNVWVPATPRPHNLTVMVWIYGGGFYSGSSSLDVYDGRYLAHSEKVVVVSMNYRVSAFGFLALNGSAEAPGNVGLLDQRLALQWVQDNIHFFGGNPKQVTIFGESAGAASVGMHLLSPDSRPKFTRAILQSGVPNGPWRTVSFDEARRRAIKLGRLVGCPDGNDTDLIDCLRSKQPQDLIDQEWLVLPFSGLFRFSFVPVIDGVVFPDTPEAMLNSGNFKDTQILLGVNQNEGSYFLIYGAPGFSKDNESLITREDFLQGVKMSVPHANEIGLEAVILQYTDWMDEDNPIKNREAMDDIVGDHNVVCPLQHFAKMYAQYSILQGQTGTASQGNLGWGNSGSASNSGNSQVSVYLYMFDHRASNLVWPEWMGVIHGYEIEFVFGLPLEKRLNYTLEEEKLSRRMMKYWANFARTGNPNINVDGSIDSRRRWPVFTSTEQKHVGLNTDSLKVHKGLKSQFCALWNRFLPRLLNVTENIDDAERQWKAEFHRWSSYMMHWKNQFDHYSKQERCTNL
pIC50: −log10 of the molar value.
OUTCOME_MEASURE: pIC50

* CC(C)C(=O)N1CCCC2(O)c3ccccc3N(C)C12 (stereo unspecified) | 6.29
* Cc1ccccc1CN1c2ccccc2C2(Cc3ccccc3C)CCN(C(=O)C(F)(F)F)C12 (stereo unspecified) | 5.15
* CCCCCCC(=O)N1CCCC2(O)c3ccccc3N(C)C12 (stereo unspecified) | 5.38
* Cc1ccc(S(=O)(=O)N2CCC3(Cc4ccccc4C)c4ccccc4N(Cc4ccccc4C)C23)cc1 (stereo unspecified) | 6.68
* CCCCC(=O)N1CCC2(Cc3cccc(C)c3)c3ccccc3N(Cc3cccc(C)c3)C12 (stereo unspecified) | 6.88
* CCCCC(=O)N1CCCC2(O)c3ccccc3N(C)C12 (stereo unspecified) | 4.56
* CCC(=O)N1CCC2(Cc3cccc(C)c3)c3ccccc3N(Cc3cccc(C)c3)C12 (stereo unspecified) | 6.04
* Cc1ccc(C(=O)N2CCCC3(O)c4ccccc4N(C)C23)cc1 (stereo unspecified) | 5.54
* Cc1cccc(C(=O)N2CCCC3(O)c4ccccc4N(C)C23)c1 (stereo unspecified) | 5.26
* CC(=O)N1CCCC2(O)c3ccccc3N(C)C12 (stereo unspecified) | 5.91
* Cc1cccc(CN2c3ccccc3C3(Cc4cccc(C)c4)CCN(C(=O)C(C)C)C23)c1 (stereo unspecified) | 4.87

----------
molecular target: UniProtKB O42275
pIC50: −log10 of the molar value.
Rule: pIC50 of 5 or more gives Yes; anything lower gives No.

* CCCCCCCC(=O)N1CCC2(Cc3ccccc3C)c3ccccc3N(Cc3ccccc3C)C12 (stereo not given) | No
* Cc1cccc(CN2c3ccccc3C3(Cc4cccc(C)c4)CCN(C(=O)Cc4ccccc4)C23)c1 (stereo not given) | No
* Cc1ccccc1CN1c2ccccc2C2(Cc3ccccc3C)CCN(C(=O)c3ccccc3C)C12 (stereo not given) | No
* Cc1cccc(CN2c3ccccc3C3(Cc4cccc(C)c4)CCN(S(=O)(=O)c4ccccc4)C23)c1 (stereo not given) | Yes
* Cc1ccccc1CN1c2ccccc2C2(Cc3ccccc3C)CCN(C(=O)COc3ccccc3)C12 (stereo not given) | No
* Cc1cccc(CN2c3ccccc3C3(Cc4cccc(C)c4)CCN(C(=O)c4ccccc4C)C23)c1 (stereo not given) | No
* CCCC(=O)N1CCC2(Cc3cccc(C)c3)c3ccccc3N(Cc3cccc(C)c3)C12 (stereo not given) | Yes
* CN1c2ccccc2C2(O)CCCN(C(=O)c3ccc(F)cc3)C12 (stereo not given) | Yes
* CCCCCCC(=O)N1CCC2(Cc3ccccc3C)c3ccccc3N(Cc3ccccc3C)C12 (stereo not given) | No
* COc1ccc(C(=O)N2CCC3(Cc4cccc(C)c4)c4ccccc4N(Cc4cccc(C)c4)C23)cc1 (stereo not given) | Yes
* Cc1cccc(CN2c3ccccc3C3(Cc4cccc(C)c4)CCN(C(=O)COc4ccccc4)C23)c1 (stereo not given) | Yes
* CCCCCCCC(=O)N1CCC2(Cc3cccc(C)c3)c3ccccc3N(Cc3cccc(C)c3)C12 (stereo not given) | No
* Cc1ccccc1CN1c2ccccc2C2(Cc3ccccc3C)CCN(S(=O)(=O)c3ccccc3)C12 (stereo not given) | Yes
* CCCCCCCC(=O)N1CCCC2(O)c3ccccc3N(C)C12 (stereo not given) | Yes
* CCCCCC(=O)N1CCC2(Cc3ccccc3C)c3ccccc3N(Cc3ccccc3C)C12 (stereo not given) | No
* Cc1cccc(CN2c3ccccc3C3(Cc4cccc(C)c4)CCN(C(=O)C(F)(F)F)C23)c1 (stereo not given) | Yes
* CN1c2ccccc2C2(O)CCCN(C(=O)c3ccccc3F)C12 (stereo not given) | Yes
* CCCC(=O)N1CCCC2(O)c3ccccc3N(C)C12 (stereo not given) | No
* CCC(=O)N1CCCC2(O)c3ccccc3N(C)C12 (stereo not given) | Yes
